Test Summary: Example 1: blood pressure, heart rate and clinical chemistry before and after HICA
Assay type: in vivo, human
Applied Conditions: n = 7; after 42 days; NS
Measure Name: fS-Creatinine, After HICA, mean (µM)
Field format: number, assumed µM, no unit text.

**Q:** Any idea what its fS-Creatinine, After HICA, mean is? The compound is CC(C)CC(O)C(=O)O (racemic) [HICA, DL-α-hydroxy-isocaproic acid]
**A:** 89.2
